This collection of values is drawn from the supplement of paper PMC11061612.

test system: SBC-5 (Small Cell Lung Carcinoma); assay: Bliss excess, mean over the matrix (fraction); higher = more synergy
Below, each entry is listed alongside its reported Bliss excess.
Could you respond with only the numeric value?

Sample answers from the record:
Input: Please supply the value of reported Bliss excess for the item NC1(C(=O)N[C@@H](CCO)c2ccc(Cl)cc2)CCN(c2ncnc3[nH]ccc23)CC1 [Capivasertib] + CCN(CCO)CCCOc1ccc2c(Nc3cc(CC(=O)Nc4cccc(F)c4)[nH]n3)ncnc2c1 [AZD2811] (first compound max 10 µM, 7x7, partner max 1 µM)
Output: 0.0526

Input: Please supply the value of reported Bliss excess for the item C[C@@H](c1ccc2nccn2c1)n1nnc2ncc(-c3cnn(C)c3)nc21 [Savolitinib] + CN(CC[C@H](CSC1=CC=CC=C1)NC2=C(C=C(C=C2)S(=O)(=O)NC(=O)C3=CC=C(C=C3)N4CCC(CC4)[C@H](C5=CC=CC=C5C6=CC=C(C=C6)Cl)O)S(=O)(=O)C(F)(F)F)CCO [AZD4320] (first compound max 1 µM, 7x7, partner max 1 µM)
Output: -0.0003

We next turn to a different compound, shown below.
Input: Please supply the value of reported Bliss excess for the item Cc1c2c(nn1C)CSCc1cc(n(C)n1)CSc1cc(c3ccccc3c1)OCCCc1c(C(=O)O)n(C)c3c-2c(Cl)ccc13 [AZD5991] + CN(C)CCCOc1ccc(-c2ccc3ncc4c(c3c2)n(C2CCOCC2)c(=O)n4C)cn1 [AZD0156] (first compound max 1 µM, 7x7, partner max 1 µM)
Output: 0.0387

---

tested on: GRANTA-519 (B-Cell Non-Hodgkin's Lymphoma); test: Bliss excess, mean over the matrix (fraction); higher = more synergy
REPORTED_METRIC: Bliss excess
Could you respond with only the numeric value?

Input: Please supply the value of reported Bliss excess for the item Cc1c2c(nn1C)CSCc1cc(n(C)n1)CSc1cc(c3ccccc3c1)OCCCc1c(C(=O)O)n(C)c3c-2c(Cl)ccc13 [AZD5991] + Cc1cc2ncnn2cc1Nc1ncc2c(n1)n(C1CCOCC1)c(=O)n2C [AZD7648] (first compound max 1 µM, 7x7, partner max 10 µM)
Output: -0.0268

We next turn to a different compound, shown below.
Input: Please supply the value of reported Bliss excess for the item NC1(C(=O)N[C@@H](CCO)c2ccc(Cl)cc2)CCN(c2ncnc3[nH]ccc23)CC1 [Capivasertib] + COc1nnc2ccc(N3CCC(c4ccc(OCCN5CCN(C)C(=O)[C@H]5C)cc4)CC3)nn12 [AZD5153] (first compound max 10 µM, 7x7, partner max 1 µM)
Output: -0.0148

---

test system: ATN-1 (T-Lymphoblastic Leukemia); assay: combination Emax (second highest fraction inhibited in the dose matrix, 72 h); higher = more inhibition; extreme values may be limits of the assay
Below, each entry is listed alongside its reported combination Emax.
Could you respond with only the numeric value?

Sample answers from the record:
Input: Please supply the value of reported combination Emax for the item COc1cccc(OCCCN)c1-c1cc(Nc2cnc(C#N)cn2)n[nH]1 [Prexasertib] + CCc1c2c(nc3ccc(O)cc13)-c1cc3c(c(=O)n1C2)COC(=O)[C@]3(O)CC [SN-38] (first compound max 1 µM, 7x7, partner max 0.3 µM)
Output: 0.999

Input: Please supply the value of reported combination Emax for the item CCN(CCO)CCCOc1ccc2c(Nc3cc(CC(=O)Nc4cccc(F)c4)[nH]n3)ncnc2c1 [AZD2811] + C=CCn1c(=O)c2cnc(Nc3ccc(N4CCN(C)CC4)cc3)nc2n1-c1cccc(C(C)(C)O)n1 [AZD1775] (first compound max 1 µM, partner max 1 µM)
Output: 1

Input: Please supply the value of reported combination Emax for the item Cc1c2c(nn1C)CSCc1cc(n(C)n1)CSc1cc(c3ccccc3c1)OCCCc1c(C(=O)O)n(C)c3c-2c(Cl)ccc13 [AZD5991] + CN(C)CCCOc1ccc(-c2ccc3ncc4c(c3c2)n(C2CCOCC2)c(=O)n4C)cn1 [AZD0156] (first compound max 1 µM, 7x7, partner max 1 µM)
Output: 0.929

Input: Please supply the value of reported combination Emax for the item CC(=O)c1c(C)c2cnc(Nc3ccc(N4CCNCC4)cn3)nc2n(C2CCCC2)c1=O [Palbociclib] + CN(CC[C@H](CSC1=CC=CC=C1)NC2=C(C=C(C=C2)S(=O)(=O)NC(=O)C3=CC=C(C=C3)N4CCC(CC4)[C@H](C5=CC=CC=C5C6=CC=C(C=C6)Cl)O)S(=O)(=O)C(F)(F)F)CCO [AZD4320] (first compound max 10 µM, 7x7, partner max 1 µM)
Output: 0.772

Input: Please supply the value of reported combination Emax for the item Cc1cc2ncnn2cc1Nc1ncc2c(n1)n(C1CCOCC1)c(=O)n2C [AZD7648] + C[C@@H]1COCCN1C2=NC(=NC(=C2)C3(CC3)[S@](=N)(=O)C)C4=C5C=CNC5=NC=C4 [AZD6738] (first compound max 10 µM, 7x7, partner max 10 µM)
Output: 0.995

Input: Please supply the value of reported combination Emax for the item Cc1c2c(nn1C)CSCc1cc(n(C)n1)CSc1cc(c3ccccc3c1)OCCCc1c(C(=O)O)n(C)c3c-2c(Cl)ccc13 [AZD5991] + C=CCn1c(=O)c2cnc(Nc3ccc(N4CCN(C)CC4)cc3)nc2n1-c1cccc(C(C)(C)O)n1 [AZD1775] (first compound max 1 µM, partner max 1 µM)
Output: 1

We next turn to a different compound, shown below.
Input: Please supply the value of reported combination Emax for the item CC1(C)CCC(CN2CCN(c3ccc(C(=O)NS(=O)(=O)c4ccc(NCC5CCOCC5)c([N+](=O)[O-])c4)c(Oc4cnc5[nH]ccc5c4)c3)CC2)=C(c2ccc(Cl)cc2)C1 [Venetoclax] + C[C@@H]1COCCN1C2=NC(=NC(=C2)C3(CC3)[S@](=N)(=O)C)C4=C5C=CNC5=NC=C4 [AZD6738] (first compound max 1 µM, 7x7, partner max 10 µM)
Output: 0.973
